- method-description: Bacterial cytotoxicity, strain TA98
- Type: cell-based
- condition-details: Salmonella typhimurium, bacterial tester strain TA98 without S9; strain TA98 – S9, 5.0E-05 M; read-out: Cytotoxicity (% of Control Values)
measure-name: viability at 50 µM (%)
Record the value in %, omitting the unit from your answer.

Inquiry: Can you share its viability at 50 µM? I mean this molecule: OCCc1cc(-c2cncc(OC[C@@H]3CCN3)c2)on1 [LF-3-88]
Reply text: 102

====

- method-description: Bacterial cytotoxicity, strain TA1535
- Type: cell-based
- condition-details: Salmonella typhimurium, bacterial tester strain TA1535 without S9; strain TA1535 – S9, 5.0E-06 M; read-out: Cytotoxicity (% of Control Values)
measure-name: viability at 5 µM (%)
Record the value in %, omitting the unit from your answer.

Inquiry: Can you share its viability at 5 µM? I mean this molecule: OCCc1cc(-c2cncc(OC[C@@H]3CCN3)c2)on1 [LF-3-88]
Reply text: 100

====

- method-description: Bacterial cytotoxicity, strain TA100
- Format: cell-based
- condition-details: Salmonella typhimurium, bacterial tester strain TA100 without S9; strain TA100 – S9, 2.5E-05 M; read-out: Cytotoxicity (% of Control Values)
measure-name: viability at 25 µM (%)
Record the value in %, omitting the unit from your answer.

Inquiry: Can you share its viability at 25 µM? I mean this compound: OCCc1cc(-c2cncc(OC[C@@H]3CCN3)c2)on1 [LF-3-88]
Reply text: 115

====

- method-description: Bacterial cytotoxicity, strain TA1535
- Format: cell-based
- condition-details: Salmonella typhimurium, bacterial tester strain TA1535 without S9; strain TA1535 – S9, 1.0E-04 M; read-out: Cytotoxicity (% of Control Values)
measure-name: viability at 0.0001 M (%)
Record the value in %, omitting the unit from your answer.

Inquiry: Can you share its viability at 0.0001 M? I mean this compound: OCCc1cc(-c2cncc(OC[C@@H]3CCN3)c2)on1
Reply text: 117

====

- method-description: Bacterial cytotoxicity, strain TA98
- Assay type: cell-based
- condition-details: Salmonella typhimurium, bacterial tester strain TA98 without S9; strain TA98 – S9, 1.25E-06 M; read-out: Cytotoxicity (% of Control Values)
measure-name: viability at 1.25 µM

Inquiry: Can you share its viability at 1.25 µM? I mean this compound: OCCc1cc(-c2cncc(OC[C@@H]3CCN3)c2)on1 [LF-3-88]
Reply text: 95%

====

- method-description: Bacterial cytotoxicity, strain TA98
- Format: cell-based
- condition-details: Salmonella typhimurium, bacterial tester strain TA98 without S9; strain TA98 – S9, 1.0E-04 M; read-out: Cytotoxicity (% of Control Values)
measure-name: viability at 0.0001 M (%)
Record the value in %, omitting the unit from your answer.

Inquiry: Can you share its viability at 0.0001 M? I mean this compound: OCCc1cc(-c2cncc(OC[C@@H]3CCN3)c2)on1
Reply text: 108

====

- method-description: Bacterial cytotoxicity, strain TA1535
- Format: cell-based
- condition-details: Salmonella typhimurium, bacterial tester strain TA1535 without S9; strain TA1535 – S9, 1.0E-05 M; read-out: Cytotoxicity (% of Control Values)
measure-name: viability at 10 µM
Param answer (str): number followed by unit.

Inquiry: Can you share its viability at 10 µM? I mean this compound: OCCc1cc(-c2cncc(OC[C@@H]3CCN3)c2)on1
Reply text: 97%
